Documented melting point across a set of compounds

1. Nc1cc(Br)ccc1C(=O)O: 222 to 224 °C
2. Clc1ccnc2ccsc12: 32 to 34 °C
3. NCc1cccnc1O: 89 to 91 °C
4. N#Cc1cc([N+](=O)[O-])ccc1O: 196 to 198 °C
5. Cc1n[nH]c(C(=O)O)c1O: 184 to 186 °C
6. O=c1cc(CS)nc2ccccn12: 119 to 121 °C

Next item in the queue.
Problem: Return reported melting point. Input compound: CC(C)C(Br)C(=O)N1CCc2sccc2C1 (centres undefined)
Result: 84 to 86 °C

----------
experimental readout: melting point

Some compounds with known melting point results, for comparison:
1) O=S(=O)(c1cccc(-c2nnc(S)o2)c1)N1CCCCC1: 205 to 207 °C
2) CN(C)C(=O)CC(=O)O: 70 to 72 °C

Problem: Quick one: give measured melting point for CC(=O)Nc1ccc(N)nc1
Result: 166 to 168 °C

Problem: Please indicate melting point recorded for Cc1ccc2nc(NCc3ccccc3)sc2c1
Result: 175 to 177 °C

Problem: Please give measured melting point of the following entry: CCOc1ccc(C(N)=O)cn1
Result: 179 to 181 °C

Problem: Please supply the value of reported melting point for the item CS(=O)c1ccc(N)cc1F (centres undefined)
Result: 109 to 111 °C

Problem: Dear colleague, please send me the reported melting point for COc1cc(Br)ccc1C(N)=O when you can.
Result: 134 to 136 °C

Problem: Provide only the value of recorded melting point for CCS(=O)(=O)c1ccc(Cl)cc1N
Result: 85 to 87 °C

Problem: Consider the compound COc1cc(C(=O)O)cc(Br)c1O . State its measured melting point.
Result: 197 to 199 °C

Problem: // Input: CCn1ccnc(Cl)c1=O . Output its melting point only.
Result: 52 to 54 °C

Problem: Give the reported melting point for this compound. O=C(O)CCNC(=O)c1cnccn1
Result: 55 to 57 °C

Problem: Identify measured melting point corresponding to CC(NC(=O)OC(C)(C)C)C(N)=NO (centres undefined)
Result: 139 to 141 °C

Problem: Return reported melting point. Input compound: CN(C)S(=O)(=O)c1ccc(C(=O)O)cc1Br
Result: 185 to 187 °C

Problem: Item Nc1cc(Cl)c(OCC(F)(F)F)c(Cl)c1 : provide melting point
Result: 89 to 91 °C

----------
Readings of melting point for the listed compounds

Problem: Identify melting point associated with the compound CC(=O)c1ccc(N2CCOCC2)c(F)c1
Result: 84 to 86 °C

Problem: For the compound FC(F)Sc1nc2ccccc2[nH]1 , give its measured melting point value.
Result: < 17 °C

----------
experimental readout: melting point

Illustrative cases are given below, each with its answer.
1) O=C(O)CCNS(=O)(=O)c1ccc2c(c1)CCCC2: 106 to 110 °C
2) Cn1cc(C(=O)O)c(=O)n(C)c1=O: 189 to 191 °C
3) CC(C)=C(F)C(=O)O: 64 to 66 °C
4) O=C(O)c1cn(-c2ccc(Br)cc2Cl)nn1: 144 to 146 °C

Problem: Return melting point for the following compound: COC(=O)c1nsnc1C(=O)O
Result: 82 to 84 °C

Problem: Please report the measured melting point for c1cc(-c2ccn[nH]2)ccn1
Result: 154 to 156 °C

Problem: Give the reported value of melting point for this record: Oc1ccccc1OCc1cscn1
Result: 120 to 122 °C

Problem: Supply melting point value. Item: COc1ccc(OC)c(C=NO)c1
Result: 94 to 96 °C

Problem: Provide measured melting point value, entry: O=C(NCCO)c1ccccc1C(F)(F)F
Result: 61 to 63 °C

Problem: Please report melting point for the following compound: COC(=O)C1Cc2ccccc2CN1C(=O)CCl (centres undefined)
Result: 85 to 87 °C

Problem: Note down melting point recorded for COc1ccc(C#N)c(N)c1
Result: 91 to 93 °C

Problem: Identify melting point associated with the compound CNS(=O)(=O)Cc1ccc(CN)cc1
Result: 140 to 142 °C

Problem: Let me know recorded melting point for CCOc1ccc(C(=O)c2ccccc2Cl)cc1 , thanks.
Result: 86 to 88 °C

Problem: Let me know recorded melting point for CCCC(C(=O)O)N(C)C (centres undefined) , thanks.
Result: 179 to 181 °C

----------
experimental readout: melting point

1. CCOc1ccc(N)cc1Cl: 63 to 65 °C
2. CCOC(=O)CN1C(=O)C(=O)c2ccccc21: 127 to 129 °C
3. Cc1cccc(NC(=O)C2CCNCC2)n1: 175 to 177 °C
4. COC(=O)[C@@H]1C[C@@H](O)CN1C(=O)C12CC3CC(CC(C3)C1)C2: 158 to 160 °C
5. CC(=O)c1cnn(-c2ccc(C#N)cc2)c1C: 152 to 154 °C
6. O=C(O)CSC1CCS(=O)(=O)C1 (configuration not stated): < 17 °C
7. N#CCc1cn(-c2ccccc2)nc1-c1ccc(Cl)cc1: 126 to 128 °C
8. COc1ccc(S(N)(=O)=O)cc1OC: 135 to 137 °C
9. Cn1c(SCC(=O)O)nc2ccccc21: 155 to 159 °C
10. COC(=O)c1ccc(S(=O)(=O)Cl)cc1: 65 to 70 °C

Problem: Determine from records and report melting point for NC(=O)CNS(=O)(=O)c1c[nH]c(C(=O)O)c1
Result: 239 to 241 °C

Problem: # return recorded melting point for entry Nc1ccc2c(c1)C(=O)N(CC1CC1)C2=O
Result: 163 to 165 °C

----------
Reported melting point values for the following compounds.

1) O=C(O)c1ccc(OCC2CC2)cc1: 254 to 256 °C

Continue with the next compound.
Problem: Answer with the recorded melting point for the compound listed here: Cc1cc(N)ccc1C(=O)N(C)C
Result: 162 to 164 °C

----------
Below, each entry is listed with its recorded melting point.

Completed entries (count: 5):
1. O=C(O)c1coc(C#Cc2ccccc2)c1: 183 to 185 °C
2. N#Cc1c(O)c(Cl)c(Cl)c(C#N)c1Cl: 256 to 258 °C
3. NC(=S)N1CCCCCC1: 151 to 153 °C
4. CSc1c[nH]nc1N: 76 to 78 °C
5. CCCCCCOc1ccc(CC(=O)O)cc1: 79 to 81 °C

Problem: Quickly give me recorded melting point for NC(=S)Nc1ccc2c(c1)OCCO2
Result: 211 to 213 °C

Problem: Quickly give me recorded melting point for Sc1nncn1-c1cccc(Cl)c1
Result: 187 to 189 °C

Problem: State its melting point for this molecule: O=C(Nc1cccc2c1CCCN2)c1ccc(F)cc1
Result: 156 to 158 °C

Problem: Output measured melting point for this item: C1CCc2nnc(C3CCCNC3)n2CC1 (stereo not drawn)
Result: 171 to 173 °C

Problem: Please look at this molecule and report its melting point: Nc1ccccc1N1C(=O)c2ccc(Br)cc2C1=O
Result: 219 to 221 °C

----------
melting point values, listed per item

Would you please look over these solved cases?
1) O=C(O)c1cc(Cl)cc(Br)c1O: 214 to 216 °C
2) CCc1cc(N)c2cc(N)ccc2n1: 151 to 153 °C
3) CC(C)(C)n1nc[nH]c1=O: 219 to 221 °C
4) COCCc1ccc2oc(N)nc2c1: 159 to 161 °C

Problem: State its melting point for this compound: Cc1ccc(-c2nnc(O)c3ccccc23)cc1
Result: 250 to 255 °C

Problem: Find the measured melting point of CCOC(=O)c1c(N=C=S)sc(C)c1C and report it.
Result: 67 to 69 °C

Problem: Return reported melting point. Input compound: CNC(=O)Cn1cnc(N)n1
Result: 149 to 151 °C

Problem: Tell us which melting point value is on record for CN1C(=O)Cc2cc(C(=O)CCl)ccc21
Result: 199 to 201 °C

Problem: Look up melting point of Nc1cccc(N2CCCC2=O)c1 and report it.
Result: 106 to 108 °C

Problem: Give melting point for Cc1ccc(O)c(C(=O)N2CCC(C(=O)O)CC2)c1
Result: 184 to 186 °C

Problem: Supply reported melting point belonging to this compound: CC(O)c1cc[nH]n1 (centres undefined)
Result: 58 to 60 °C

----------
experimental readout: melting point

1. O=C(O)COc1ccc2ccccc2c1Br: 158 to 160 °C
2. CS(=O)(=O)c1c(N)cccc1Cl: 97 to 99 °C
3. O=C(O)c1nn(-c2ccc(F)cc2)c2c1CCC2: 202 to 204 °C
4. Cc1cc2ncc(C=O)cn2n1: 149 to 151 °C
5. O=C(O)C1CCCN(C(=O)c2ccc(Br)c(F)c2)C1 (stereo not drawn): 157 to 159 °C
6. Cc1ccc(-c2nc(C)c(C(C)N)s2)cc1 (stereo not drawn): 57 to 59 °C

Problem: Please supply the value of reported melting point for the item N#CCc1cc(F)cc2c1OCOC2
Result: 75 to 77 °C

Problem: Give the measured melting point for Cn1c(=O)c2c(n(Cc3ccccc3)c1=O)NC(=O)C2CC(=O)O (stereo not drawn)
Result: 243 to 247 °C

Problem: Please indicate melting point recorded for Cc1cn2nc(N)c3ccccc3c2n1
Result: 216 to 218 °C

Problem: Give the value of melting point reported for the following: COc1ccc(C(N)c2ccccc2OC)cc1 (stereo not drawn)
Result: 58 to 60 °C

Problem: Complete the entry with melting point for CCOc1ccc(C(=O)O)cn1
Result: 184 to 186 °C

Numbers sourced from a melting point compilation (Tetko et al.).
